System: OVCAR-3 ovarian
protocol: NCI tumour cell line growth inhibition, 384-well format
The reader will find reported TGI values listed item by item below.
Numeric answer only, unit µM assumed.

Cc1cn(-c2cc(NC(=O)c3ccc(C)c(Nc4nccc(-c5cccnc5)n4)c3)cc(C(F)(F)F)c2)cn1 3.36
Cc1cc(N2CCOCC2)cc2[nH]c(-c3c(NC[C@@H](O)c4cccc(Cl)c4)cc[nH]c3=O)nc12 12.5
Cn1cc(-c2ccc(-c3ccc(C4=NC5(CC5)C(=O)N4C[C@@H]4CCN(C(=O)C5CC5)C4)cc3)cc2)cn1 31.2

Could you now consider this next compound?
Lookup: GET /values?readout=TGI&item= `COc1cc(Nc2ncc(F)c(Nc3ccc4c(n3)N(COP(=O)(O)O)C(=O)C(C)(C)O4)n2)cc(OC)c1OC`
Found: 11.1

* * *

Tested on: MOLT-4 leukemia
protocol: NCI tumour cell line growth inhibition, 384-well format; in the data active means GI50 below about 0.43 µM; inactive means the rest
Log the outcome using a class from active, inactive

# example entries with known answers
COc1cc(OC)c(C(=O)C(CN(C)C)CN(C)C)cc1OC active
S=P(N1CC1)(N1CC1)N1CC1 active
Cn1cc(-c2ccc(-c3ccc(C4=NC5(CC5)C(=O)N4C[C@@H]4CCN(C(=O)C5CC5)C4)cc3)cc2)cn1 inactive

Turning now to a further compound:
Lookup: GET /call?item= `Cc1cn(-c2cc(NC(=O)c3ccc(C)c(Nc4nccc(-c5cccnc5)n4)c3)cc(C(F)(F)F)c2)cn1` returns the recorded outcome of this test.
Found: inactive

FYI, the data here is from PubChem BioAssay (NCI).
